As an illustration, consider measured pIC50 for compounds on Human α-thrombin (Homo sapiens).
pIC50: −log10 of the molar value. Square brackets hold non-standard residues; d marks the D form. Peptide text beside a SMILES is read from it. * marks the point of attachment. 1Nal = N[C@@H](Cc1cccc2ccccc12)C(=O)O; d2Nal = N[C@H](Cc1ccc2ccccc2c1)C(=O)O; dPhg = N[C@@H](C(=O)O)c1ccccc1; Boc = CC(C)(C)OC(=O)*

| compound | operator symbol | pIC50 |
| --- | --- | --- |
| CC(C)(C)OC(=O)N[C@H](Cc1ccccc1)C(=O)N[C@@H](Cc1cccc2ccccc12)C(=O)N[C@H](C=O)CCCNC(=N)N [[5]] (Boc-[dF]-[1Nal]-Arg-aldehyde) | = | 4.89 |
| CC(C)(C)OC(=O)NC(C(=O)N[C@@H](Cc1cccc2ccccc12)C(=O)N[C@H](C=O)CCCNC(=N)N)c1ccc(-c2ccccc2)cc1 (stereo partly drawn) [[7]] | < | 4.60 |
| CC(C)(C)OC(=O)N[C@H](Cc1ccc2ccccc2c1)C(=O)N[C@@H](Cc1ccccc1)C(=O)N[C@H](C=O)CCCNC(=N)N [[1]] (Boc-[d2Nal]-Phe-Arg-aldehyde) | = | 4.85 |
| CC(C)(C)OC(=O)N[C@H](Cc1ccccc1)C(=O)N1CCC[C@H]1C(=O)N[C@H](C=O)CCCNC(=N)N [[23], reference compound] | = | 7.60 |
| CC(C)(C)OC(=O)N[C@H](Cc1ccccc1)C(=O)N[C@@H](Cc1ccccc1)C(=O)N[C@H](C=O)CCCNC(=N)N [[4]] (Boc-[dF]-Phe-Arg-aldehyde) | < | 4.60 |
| CC(C)(C)OC(=O)N[C@@H](C(=O)N[C@@H](Cc1ccccc1)C(=O)N[C@H](C=O)CCCN=C(N)N)c1ccccc1 [[2]] (Boc-[dPhg]-Phe-Arg-aldehyde) | < | 4.60 |
